# TARGET_OF_ASSAY: Cell surface CD73 of U87 MG human glioblastoma cells (Homo sapiens, UniProt P21589)
# Construct: Cell surface CD73 catalyzes the conversion of adenosine monophosphate (AMP) to adenosine and inorganic phosphate; endogenous in cells; host or cells: U87 MG human glioblastoma cells
# Sequence (P21589 27-549): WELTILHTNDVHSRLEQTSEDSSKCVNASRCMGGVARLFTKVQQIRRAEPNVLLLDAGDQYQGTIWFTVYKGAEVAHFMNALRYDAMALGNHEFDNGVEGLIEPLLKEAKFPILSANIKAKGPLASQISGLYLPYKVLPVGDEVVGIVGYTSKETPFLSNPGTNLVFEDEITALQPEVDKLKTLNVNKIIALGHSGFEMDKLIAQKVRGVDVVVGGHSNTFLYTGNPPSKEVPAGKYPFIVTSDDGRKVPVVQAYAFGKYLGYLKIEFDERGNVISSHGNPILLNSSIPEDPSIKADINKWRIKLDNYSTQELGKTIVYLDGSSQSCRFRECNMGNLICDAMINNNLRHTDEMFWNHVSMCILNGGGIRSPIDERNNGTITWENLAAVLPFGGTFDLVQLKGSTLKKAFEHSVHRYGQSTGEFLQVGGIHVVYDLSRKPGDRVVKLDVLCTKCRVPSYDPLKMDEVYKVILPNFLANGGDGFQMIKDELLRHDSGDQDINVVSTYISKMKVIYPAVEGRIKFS
# PROTOCOL_NOTES: CD73 Cellular Assay
# Assay type: cell-based
# REPORTED_CONDITIONS: 5000 cells per well, 30 μM AMP substrate, read-out: Potency (IC50, CD73 cellular assay)
# Description: Cell surface CD73 catalyzes the conversion of adenosine monophosphate (AMP) to adenosine and inorganic phosphate. U87 MG human glioblastoma cells express high level of CD73. […] The concentration of inorganic phosphate (Pi) in the supernatants is determined using the phosphate detection reagent, PiColorLock™ (Innova Bioscience, Cat #303-0125) following the manufacturer's instructions. […]
pIC50: −log10 of the molar value.
OBSERVED_PROPERTY: pIC50

The observed pIC50 for O=P(O)(O)CP(=O)(O)OC[C@H]1O[C@@H](c2cnc3c(N4CCC[C@H]4c4ccccc4F)nc(Cl)nn23)[C@H](O)[C@@H]1O [Compound 55] when tested with Cell surface CD73 of U87 MG human glioblastoma cells (Homo sapiens, UniProt P21589) stands at > 9.00

# value of pIC50, Cell surface CD73 of U87 MG human glioblastoma cells (Homo sapiens, UniProt P21589), item O=P(O)(O)CP(=O)(O)OC[C@H]1O[C@@H](c2cnc3c(N4CC5CCCC5C4)nc(Cl)nn23)[C@H](O)[C@@H]1O (stereo partly drawn) [Compound 10] = > 9.00

Reported pIC50 (Cell surface CD73 of U87 MG human glioblastoma cells (Homo sapiens, UniProt P21589)) for entry CN(c1nc(Cl)nn2c([C@@H]3O[C@H](COP(=O)(O)CP(=O)(O)O)[C@@H](O)[C@H]3O)cnc12)C1CCCC1 [Compound 8] is > 9.00

pIC50 value, target or system Cell surface CD73 of U87 MG human glioblastoma cells (Homo sapiens, UniProt P21589), for O=P(O)(O)CP(=O)(O)OC[C@H]1O[C@@H](c2cnc3c(NC4CC5CCC4C5)nc(Cl)nn23)[C@H](O)[C@@H]1O (stereo partly drawn) [Compound 50] : > 9.00

With Cell surface CD73 of U87 MG human glioblastoma cells (Homo sapiens, UniProt P21589) as the test system, O=P(O)(O)CP(=O)(O)OC[C@H]1O[C@@H](c2cnc3c(N4CC5CCCC5C4)nc(Cl)nn23)[C@@H](F)[C@@H]1O (stereo partly drawn) [Compound 72] showed pIC50 of 8.00 to 9.00

Measured on Cell surface CD73 of U87 MG human glioblastoma cells (Homo sapiens, UniProt P21589), O=P(O)(O)CP(=O)(O)OC[C@H]1O[C@@H](c2cnc3c(NCc4ccccc4Cl)nc(Cl)nn23)[C@H](O)[C@@H]1O [Compound 11] has a documented pIC50 of > 9.00

====

Provide the recorded pIC50 for the entries that follow.
# TARGET_OF_ASSAY: Cell surface CD73 of U87 MG human glioblastoma cells (Homo sapiens, UniProt P21589)
# Construct: Cell surface CD73 catalyzes the conversion of adenosine monophosphate (AMP) to adenosine and inorganic phosphate; endogenous in cells
# PROTOCOL_NOTES: CD73 Cellular Assay
# REPORTED_CONDITIONS: 5000 cells per well, 30 μM AMP substrate, read-out: Potency (IC50, CD73 cellular assay)
pIC50: −log10 of the molar value.

Fill in: Cell surface CD73 of U87 MG human glioblastoma cells (Homo sapiens, UniProt P21589) pIC50 for O=P(O)(O)CP(=O)(O)OC[C@H]1O[C@@H](c2cnc3c(N4CCC[C@H]4c4ccccc4)nc(Cl)nn23)[C@H](O)[C@@H]1O [Compound 64] = > 9.00

Fill in: Cell surface CD73 of U87 MG human glioblastoma cells (Homo sapiens, UniProt P21589) pIC50 for NC(=O)c1nc(NC2CCCC2)c2ncc([C@@H]3O[C@H](COP(=O)(O)CP(=O)(O)O)[C@@H](O)[C@H]3O)n2n1 [Compound 66] = > 9.00

Recorded pIC50 for O=P(O)(O)CP(=O)(O)OC[C@H]1O[C@@H](c2cnc3c(N4CCC(F)(F)C4)nc(Cl)nn23)[C@H](O)[C@@H]1O [Compound 46] on Cell surface CD73 of U87 MG human glioblastoma cells (Homo sapiens, UniProt P21589) was > 9.00

Field pIC50 (Cell surface CD73 of U87 MG human glioblastoma cells (Homo sapiens, UniProt P21589)), entry C[C@H](Nc1nc(Cl)nn2c(C3O[C@H](COP(=O)(O)CP(=O)(O)O)[C@@H](O)[C@@H]3F)cnc12)c1ccccc1F (some centres unmarked) [Compound 74] : 7.00 to 8.00

// compound O=P(O)(O)CP(=O)(O)OC[C@H]1O[C@@H](c2cnc3c(N[C@H]4CCc5ccccc54)nc(Cl)nn23)[C@H](O)[C@@H]1O [Compound 63] , assay Cell surface CD73 of U87 MG human glioblastoma cells (Homo sapiens, UniProt P21589), pIC50 value: > 9.00

Form field pIC50 for item C[C@H](Nc1nc(Cl)nn2c([C@@H]3O[C@H](COP(=O)(O)CP(=O)(O)O)[C@@H](O)[C@H]3O)cnc12)c1ccccc1 [Compound 35] on Cell surface CD73 of U87 MG human glioblastoma cells (Homo sapiens, UniProt P21589): > 9.00

Bench note, Cell surface CD73 of U87 MG human glioblastoma cells (Homo sapiens, UniProt P21589): O=P(O)(O)CP(=O)(O)OC[C@H]1O[C@@H](c2cnc3c(N4Cc5ccccc5C4)nc(Cl)nn23)[C@H](O)[C@@H]1O [Compound 24] , pIC50 reads > 9.00

Measured pIC50 for this entry O=P(O)(O)CP(=O)(O)OC[C@H]1OC(c2cnc3c(N4CCCC4)nc(Cl)nn23)[C@@H](F)[C@@H]1O (some centres unmarked) [Compound 73] on Cell surface CD73 of U87 MG human glioblastoma cells (Homo sapiens, UniProt P21589): 8.00 to 9.00
